Experiment: toxicity (24 hours observation)
Conditions: in vivo, mouse, oral, suspension in olive oil or gum arabic
measurementType: LD50 at 24 h
Please answer in the form of a number followed by its unit of measurement.

Worked examples follow.
CC(=O)NC1CCN(CCCC(=O)c2ccc(F)cc2)CC1    1050 mg/kg
O=C(CCCN1CCC(NC(=O)c2ccccc2)CC1)c1ccc(F)cc1 [C6 H5, reference compound]    300 mg/kg
CCC(=O)NC1CCN(CCCC(=O)c2ccc(F)cc2)CC1    1160 mg/kg

Now, please, on to the next compound.
I am curious: what LD50 at 24 h value has been reported for `CC(C)C(=O)NC1CCN(CCCC(=O)c2ccc(F)cc2)CC1` ?
1850 mg/kg

* * *

Entries and their measured ED50 follow.
Assay: inhibition of exploration (Planche-a-Trous situation)
Format: in vivo, Mouse (albino, NMRI)
Conditions: mouse, oral, suspension in olive oil or gum arabic; 50% decrease of exploration
# output: bare number, implied unit mg/kg

Consider the worked cases shown below.
CCC(=O)NC1CCN(CCCC(=O)c2ccc(F)cc2)CC1    4.4
O=C(CCCN1CCC(NC(=O)c2ccccc2)CC1)c1ccc(F)cc1 [C6 H5, reference compound]    45
CC(=O)NC1CCN(CCCC(=O)c2ccc(F)cc2)CC1    8

Now let's try a different one.
Suppose we examine the compound `CC(C)C(=O)NC1CCN(CCCC(=O)c2ccc(F)cc2)CC1` ; what ED50 value has been reported?
9

These measurements were taken from patent US4069331A.
